Origin of measurements: ChEMBL document CHEMBL4513216

System: Plasmodium berghei
assay text: Screen against P. berghei liver stage (PbLuc), transformed with Luciferase, at 10uM
Format: functional, HepG2
experimental conditions: tested at 10 uM
The whole screen tested about 69,000 compounds, of which about 8,600 (12%) showed an effect of 50% or more. This excerpt belongs to a sample that is enriched for strong results.
With a cut-off of 10%, any INHIBITION strictly below it is called 1 (yes); any INHIBITION meeting it or above is called 0 (no).

State whether 10% exceeds INHIBITION recorded for `CC(=O)N1CCC(C)(c2cc(C(=O)NCC(C)(C)C)nc(C)n2)CC1` .
0 (no)

State whether 10% exceeds INHIBITION recorded for CN(C)CC1CCCCN1C(=O)c1ccc(N2CCOCC2)cc1 (stereo unspecified) .
0 (no)

State whether 10% exceeds INHIBITION recorded for `CCCn1nc2c(cc1=O)CN(c1ncnc3sccc13)CC2` .
0 (no)

State whether 10% exceeds INHIBITION recorded for CCC12CN3CC(CC)(CN(C1)C3c1[nH]c(=O)[nH]c(=O)c1C)C2=O (stereo unspecified) .
0 (no)

State whether 10% exceeds INHIBITION recorded for `Cn1nc2c(cc1=O)CN(c1ncnc3sccc13)CC2` .
0 (no)

State whether 10% exceeds INHIBITION recorded for `c1sc(C2CCCCC2)nc1CN1CCn2c(nnc2C2CC2)C1` .
0 (no)

State whether 10% exceeds INHIBITION recorded for `CC(C)n1nc2c(cc1=O)CN(CCCN1CCCC1=O)CC2` .
0 (no)

State whether 10% exceeds INHIBITION recorded for CN(C)C(=O)CN1CCC2(CCCN(Cc3cccs3)C2)C1=O (stereo unspecified) .
1 (yes)

State whether 10% exceeds INHIBITION recorded for Cc1c(C2N3CC4(C(C)C)CN2CC(C(C)C)(C3)C4=O)[nH]c(=O)[nH]c1=O (stereo unspecified) .
0 (no)

State whether 10% exceeds INHIBITION recorded for `CCn1nc2c(cc1=O)CN(Cc1nc3ccccc3o1)CC2` .
1 (yes)

State whether 10% exceeds INHIBITION recorded for `CCCN(Cc1cnn(C)c1)S(=O)(=O)c1ccc(F)c(C#N)c1` .
1 (yes)

====

System: Plasmodium berghei
assay text: Screen against P. berghei liver stage (PbLuc), transformed with Luciferase, at 10uM
Type: functional, HepG2
experimental conditions: tested at 10 uM
Out of some 69,000 compounds screened, about 8,600 (12%) showed an effect of 50% or more. The entries come from a sample that favours strong results as a whole.
Record form. Attribute: INHIBITION. Fill in for each entry.
Note: unit % is implicit; provide only the numeric part.

response.value for `Cc1ccc(C)c(NC(=O)N(C)Cc2cnn(C)c2)c1` (field: INHIBITION) = 39.8

response.value for `CCSc1cc(C(=O)NCCNC(=O)Cc2ccccc2)ccn1` (field: INHIBITION) = 26.9

response.value for `CC(C)OCc1cccc(NC(=O)N(C)Cc2ncnn2C)c1` (field: INHIBITION) = 45.8

response.value for `CCOc1cc(NC(=O)N(C)Cc2ncnn2C)ccc1C` (field: INHIBITION) = 50.1

response.value for `Cc1ccc(NC(=O)N(C)Cc2cnn(C)c2)cc1OCC(F)F` (field: INHIBITION) = 52.7

response.value for Cc1ccc(CN2CCC3(CC2)OC(C(=O)N(C)C)c2ccccc23)o1 (stereo unspecified) (field: INHIBITION) = 34
